Sourced from the RNAGym collection of RNA variant scans (doi:10.1093/nar/gkz1192)

So I've got a bunch of variants here, and I need their self-cleavage values.
B1: CPEB3 Ribozyme (parent)
chain: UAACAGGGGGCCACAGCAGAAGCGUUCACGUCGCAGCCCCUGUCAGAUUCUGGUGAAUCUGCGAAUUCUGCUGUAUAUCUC

Variants of: B1
Experiment: self-cleavage, relative activity (ratio to wild type); higher = more cleavage; in vitro, sequencing
One number for each entry.

Look over these answered cases.
construct_sequence	self-cleavage
UAACAGGGGGCCACAGCAGAAGCGUUCUCGUCGCAGCCUCUGUCAGAUUCUGGUGAAUCUGCGAAUUCUGCUGUAUAUCUC [A28U C39U]	0.48
UGACAGGGGACCACAGCAGAAGCGUUCACGUCGCAGCCCCUGUCAGAUUCUGGUGAAUCUGCGAAUUCUGCUGUAUAUCUC [A2G G10A]	0.41
UAACAGGGGGCCACAGCAGAAGCGUUCACGUCGCAGCCCCUGUCAGAUUCUGGUGAAUCAGCGAAUUCGGCUGUAUAUCUC [U60A U69G]	0.25

Please look at the items below and tell me self-cleavage for each one, in order.
1. UGACAGGGGGCCACAGCAGAAGCGUUCACGUUGCAGCCCCUGUCAGAUUCUGGUGAAUCUGCGAAUUCUGCUGUAUAUCUC [A2G C32U]
2. UAACAGGGGGCCACAGCAGAAGCGUUCACGUCGCAGCCCCUUUCAGAUUCUGGUGAAUCUGCGAAGUCUGCUGUAUAUCUC [G42U U66G]
3. UAACAGGGGGCCACAGCAGAAGCGUUCACGUUGCAGCCCCUGUCAGAUUCUGGUGAAUCUGCGAAUUCUGCUGGAUAUCUC [C32U U74G]
4. UAACAGGGGGCCACAGCAGAAGCGUUCACGUCGCAGCCCCCGUCAGAUUCUGGUGAAUCUGCGAAUUCUGCUGAAUAUCUC [U41C U74A]

1. 0.3
2. 0.32
3. 0.09
4. 1.22
